# Tested on: binding site 2 of the sodium channel (batrachotoxin (BTX) binding site)
# experiment.notes: Binding test on the sodium channel, binding site 2 (BTX bond), [3H]-batrachotoxinin A20 α-benzoate as ligand
# Design: species or system rat
# experimental.context: 10 μM; rat cerebrocortex synaptosomes; ligand 10 nM; 25° C., 120 min
Examples of compounds with documented BTX bond, % inhibition [10 μM] follow.
Express your answer in %, writing the number without its unit.

// worked examples, BTX bond, % inhibition [10 μM] included
CCn1cc(C2CCN(C(=O)COc3cccc(Cl)c3)C2)c2ccccc21 (stereo not shown) :: 83
COc1cccc(Cn2cc(C3CCN(C(=O)C=Cc4ccccc4)C3)c3ccccc32)c1 (stereo not shown) :: 92
Cc1oc(C(C)(C)C)cc1C(=O)N1CCC(c2cn(Cc3ccccc3C#N)c3ccccc23)C1 (stereo not shown) :: 89
Cn1cc(C2CCN(C(=O)C=Cc3ccccc3)C2)c2ccccc21 (stereo not shown) :: 93
CCCCn1cc(C2CCN(C(=O)c3ccc(C(F)(F)F)nc3C)C2)c2ccccc21 (stereo not shown) :: 93
CC(C)CCn1cc(C2CCN(C(=O)c3ccc(C(C)(C)C)cc3)C2)c2ccccc21 (stereo not shown) :: 91

Reported BTX bond, % inhibition [10 μM] for COc1cccc(Cn2cc(C3CCN(C(=O)CCc4ccccc4)C3)c3ccccc32)c1 (stereo not shown) was 96

Reported BTX bond, % inhibition [10 μM] for Cc1nc(C(F)(F)F)ccc1C(=O)N1CCC(c2cn(Cc3cccc(F)c3)c3ccccc23)C1 (stereo not shown) was 96

* * *

# system.under.test: serotonin reuptake (5HT uptake) (Rattus norvegicus, UniProt P31652)
# Construct: These vesicular particles were isolated from the hypothalamus of male rats' brains for 5HT uptake; from tissue; host or cells: rat brain synaptosomes (P2 fraction; cerebral cortex / hypothalamus of male rats)
# Sequence (P31652 whole entry): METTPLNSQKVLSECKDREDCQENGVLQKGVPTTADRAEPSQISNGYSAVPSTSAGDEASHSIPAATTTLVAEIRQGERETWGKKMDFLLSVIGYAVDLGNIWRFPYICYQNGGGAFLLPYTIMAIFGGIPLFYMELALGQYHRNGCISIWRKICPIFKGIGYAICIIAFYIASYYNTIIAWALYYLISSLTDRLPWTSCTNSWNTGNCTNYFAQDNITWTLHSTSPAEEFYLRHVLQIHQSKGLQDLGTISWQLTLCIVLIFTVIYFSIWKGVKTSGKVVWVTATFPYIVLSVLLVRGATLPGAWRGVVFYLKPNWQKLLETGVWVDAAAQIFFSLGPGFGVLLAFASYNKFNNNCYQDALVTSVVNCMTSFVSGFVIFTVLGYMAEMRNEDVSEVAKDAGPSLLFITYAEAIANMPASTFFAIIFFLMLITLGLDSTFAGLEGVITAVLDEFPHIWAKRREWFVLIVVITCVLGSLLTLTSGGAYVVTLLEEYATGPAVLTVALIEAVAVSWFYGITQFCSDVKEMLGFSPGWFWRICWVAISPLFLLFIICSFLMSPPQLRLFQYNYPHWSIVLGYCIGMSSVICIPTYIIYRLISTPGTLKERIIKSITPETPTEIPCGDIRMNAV
# experiment.notes: Serotonin reuptake inhibition (5HT uptake inhibition) in rat brain synaptosomes
# Format: biochemical
# experimental.context: synaptosomes from male rats' brains
Assign MET to entries whose inhibition at 10 µM meets or exceeds 60%; assign NOT MET to the rest.

Reference set, count: 4
Cc1ccc(F)c(C(=O)N2CCC(c3cn(Cc4ccc(C#N)cc4)c4ccccc34)C2)c1Cl (centres unmarked) [Compound 31] :: MET
O=C(c1ccc(SC(F)(F)F)cc1)N1CCC(c2c[nH]c3ccccc23)C1 (centres unmarked) [Compound 18] :: NOT MET
O=[N+]([O-])c1ccc(S(=O)(=O)N2CCC(c3c[nH]c4ccccc34)C2)cc1 (centres unmarked) [Compound 24] :: NOT MET
Cn1cc(C2CCN(C(=O)c3c(F)c(F)c(F)c(F)c3F)C2)c2ccccc21 (centres unmarked) [Compound 47] :: NOT MET

Kindly consider the entry below.
Check this compound for inhibition at 10 µM at or above 60%: Cn1cc(C2CCN(C(=O)c3cccnc3Cl)C2)c2ccccc21 (centres unmarked) [Compound 40]
MET

* * *

# system.under.test: noradrenalin reuptake (NA uptake) (Rattus norvegicus)
# Construct: These vesicular particles were isolated from the hypothalamus of male rats' brains for NA uptake; from tissue; host or cells: rat brain synaptosomes (P2 fraction; cerebral cortex / hypothalamus of male rats)
# Sequence (Q9WTR4 1-597): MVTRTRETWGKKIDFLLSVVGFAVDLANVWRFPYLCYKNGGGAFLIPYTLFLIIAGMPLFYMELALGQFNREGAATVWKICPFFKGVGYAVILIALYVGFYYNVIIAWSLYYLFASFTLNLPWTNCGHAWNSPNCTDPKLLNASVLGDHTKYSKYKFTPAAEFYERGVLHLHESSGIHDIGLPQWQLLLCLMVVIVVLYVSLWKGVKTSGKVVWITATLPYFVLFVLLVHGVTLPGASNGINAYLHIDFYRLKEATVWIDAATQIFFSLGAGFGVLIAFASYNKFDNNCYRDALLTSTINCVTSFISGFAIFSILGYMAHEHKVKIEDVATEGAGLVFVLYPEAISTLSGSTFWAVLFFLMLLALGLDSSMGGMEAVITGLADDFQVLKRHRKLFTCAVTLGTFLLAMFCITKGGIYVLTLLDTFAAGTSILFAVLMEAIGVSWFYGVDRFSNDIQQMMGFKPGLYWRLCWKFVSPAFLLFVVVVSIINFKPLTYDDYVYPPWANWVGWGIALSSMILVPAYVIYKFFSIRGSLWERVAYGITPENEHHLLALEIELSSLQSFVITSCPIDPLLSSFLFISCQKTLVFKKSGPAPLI
# experiment.notes: Noradrenalin reuptake inhibition (NA uptake inhibition) in rat brain synaptosomes
# Assay type: biochemical
# experimental.context: synaptosomes from male rats' brains
Examples of compounds with documented inhibition at 10 µM follow.
Express your answer in %, writing the number without its unit.

O=C(c1ccc([N+](=O)[O-])cc1Cl)N1CCC(c2cn(Cc3cccc(F)c3)c3ccccc23)C1 (stereo not drawn) :: 43
Cc1nc(C(F)(F)F)ccc1C(=O)N1CCC(c2cn(Cc3cccc(F)c3)c3ccccc23)C1 (stereo not drawn) :: 58
CSc1ncccc1C(=O)N1CCC(c2cn(C)c3ccccc23)C1 (stereo not drawn) :: 43
CN(C)C(=O)Cn1cc(C2CCN(C(=S)Nc3cccc(C(F)(F)F)c3)C2)c2ccccc21 (stereo not drawn) :: 50
Cn1cc(C2CCN(C(=O)c3cccnc3Cl)C2)c2ccccc21 (stereo not drawn) :: 43

Now look at this one.
Known value: noradrenalin reuptake (NA uptake) (Rattus norvegicus) inhibition at 10 µM of the compound O=[N+]([O-])c1ccc(S(=O)(=O)N2CCC(c3c[nH]c4ccccc34)C2)cc1 (stereo not drawn) equals 59
